- assay explanation: Binding affinity was determined against Opioid receptor delta 1 obtained from guinea pig brain membranes using [3H]naltrindole as radioligand
endpoint label: Ki (pM)

1. C[C@H]1[C@H]2Cc3ccc(O)cc3[C@]1(C)CCN2CC1CC1 [CYCLAZOCINE]
580

----------
Each entry below carries its measured Ki, system: Mu-type opioid receptor (Cavia porcellus).
Sequence (P97266 whole entry): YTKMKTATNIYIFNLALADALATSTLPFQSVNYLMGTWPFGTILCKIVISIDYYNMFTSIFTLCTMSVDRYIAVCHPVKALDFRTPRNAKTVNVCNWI
endpoint label: Ki (nM)

1) CC(C)Nc1ccc2c(c1)[C@@]1(C)CCN(CC3CC3)C(C2)[C@@H]1C (mixture of isomers)
240
2) C[C@H]1[C@H]2Cc3ccc(Nc4ccccc4)cc3[C@@]1(C)CCN2CC1CC1 (stereo in doubt; (+)-12)
46
3) C[C@H]1C2Cc3ccc(N4CCCCC4)cc3[C@@]1(C)CCN2CC1CC1 (mixture of isomers)
950
4) C[C@H]1C2Cc3ccc(NCc4ccccc4)cc3[C@@]1(C)CCN2CC1CC1 (mixture of isomers)
1.5
